Reference source for all entries: ChEMBL document CHEMBL5104110

Quick reference: selectivity ratio of the listed items.
Method summary: Selectivity index, ratio of IC50 for cytotoxicity against PMA-differentiated THP-1 macrophages to IC50 for antileishmanial activity against log phase of wild type Leishmania donovani MHOM/80/IN/Dd8 promastigotes
Format: toxicity
Test settings: human; read-out: Ratio IC50
Please give the numeric answer without any surrounding text.

CN1CCN(CCCNc2nc(-c3ccc(F)cc3)nc3ccccc23)CC1 : 5
COc1ccc(-c2nc(NCCCN3CCOCC3)c3ccccc3n2)cc1O : 1.76
NCCCCNc1nc(-c2ccc(F)cc2)nc2ccccc12 : 1.96
COc1cc(-c2nc(NCCCN(C)C)c3ccccc3n2)cc(OC)c1OC : 2.06
CN(C)CCNc1nc(-c2ccc(O)cc2)nc2ccccc12 : 9.27
COc1ccc(-c2nc(NCCN(C)C)c3ccccc3n2)cc1O : 3.46

Entry under review: COc1ccc(-c2nc(NCCN(C)C)c3ccccc3n2)cc1 . Reported selectivity ratio?
11

Now try NCCCCNc1nc(-c2ccc(Cl)cc2)nc2ccccc12 .
1.08

Now try CN(C)CCCNc1nc(-c2ccc(O)cc2)nc2ccccc12 .
10

Now try COc1ccc(-c2nc(NCCCN(C)C)c3ccccc3n2)cc1 .
13.5

Now try COc1cc(-c2nc(NCCCN3CCN(C)CC3)c3ccccc3n2)cc(OC)c1OC .
0.6

Now try Oc1ccc(-c2nc(NCCCN3CCOCC3)c3ccccc3n2)cc1 .
1.42

====

Method summary: Cytotoxicity against human PMA-differentiated THP-1 macrophages assessed as inhibition of cell growth by MTT assay
Format: toxicity, cell-based, Macrophage
We label by threshold. Values of IC50 strictly beneath 50 µM are TRUE. Values of 50 µM and up are FALSE.

As a guide, the following entries are already answered.
CN(C)CCCNc1nc(-c2ccccc2)nc2ccccc12 : FALSE
COc1cc(-c2nc(NCCCN3CCN(C)CC3)c3ccccc3n2)cc(OC)c1OC : FALSE
COc1ccc(-c2nc(NCCCN3CCOCC3)c3ccccc3n2)cc1 : FALSE

Confirm or reject: IC50 of NCCNc1nc(-c2ccc(Cl)cc2)nc2ccccc12 lies strictly below 50 µM
TRUE

Now try CN1CCN(CCCNc2nc(-c3ccc(F)cc3)nc3ccccc23)CC1 .
TRUE

Now try Oc1ccc(-c2nc(NCCCN3CCOCC3)c3ccccc3n2)cc1 .
FALSE

Now try CN(C)CCCNc1nc(-c2ccc(F)cc2)nc2ccccc12 .
FALSE

Now try CN(C)CCNc1nc(-c2ccc(Cl)cc2)nc2ccccc12 .
FALSE

Now try NCCCCNc1nc(-c2ccc(Cl)cc2)nc2ccccc12 .
TRUE
